Reference source: patent US5468758A

experiment: Moisture sorption/desorption studies (hygrostat, storage at different temperatures and relative humidity); type: physicochemical; details: 37° C., 75% RH, 1 d
Measure name: water content (Table III) (%)
Give just the numeric value; % need not be written.

query: Consider the molecule CN1C2CCC1CC(NC(=O)n1c(=O)[nH]c3ccccc31)C2 (stereo not shown) [Compound 1a, reference compound] and give its measured water content (Table III).
result: 1.95

---

assay: Accelerated stability tests in tablets and capsules; assay type: physicochemical; details: tablets and capsules, 6 months/40° C.-75% RH; tablets and capsules in PVC/PVDC blister with aluminium foil; read-out: % degradation
Measure name: degraded at 4320 h (%)
Give just the numeric value; % need not be written.

query: Consider the compound CN1C2CCC1CC(NC(=O)n1c(=O)[nH]c3ccccc31)C2 (stereo not shown) [Compound 1a, reference compound] and give its measured degraded at 4320 h.
result: 1.7
